# system_under_test: human cardiac ion channel proteins hKir3.1/Kir3.4 (Homo sapiens, UniProt P48544+P48549)
# Construct: expressed in transfected cells
# Sequence (P48549 whole entry): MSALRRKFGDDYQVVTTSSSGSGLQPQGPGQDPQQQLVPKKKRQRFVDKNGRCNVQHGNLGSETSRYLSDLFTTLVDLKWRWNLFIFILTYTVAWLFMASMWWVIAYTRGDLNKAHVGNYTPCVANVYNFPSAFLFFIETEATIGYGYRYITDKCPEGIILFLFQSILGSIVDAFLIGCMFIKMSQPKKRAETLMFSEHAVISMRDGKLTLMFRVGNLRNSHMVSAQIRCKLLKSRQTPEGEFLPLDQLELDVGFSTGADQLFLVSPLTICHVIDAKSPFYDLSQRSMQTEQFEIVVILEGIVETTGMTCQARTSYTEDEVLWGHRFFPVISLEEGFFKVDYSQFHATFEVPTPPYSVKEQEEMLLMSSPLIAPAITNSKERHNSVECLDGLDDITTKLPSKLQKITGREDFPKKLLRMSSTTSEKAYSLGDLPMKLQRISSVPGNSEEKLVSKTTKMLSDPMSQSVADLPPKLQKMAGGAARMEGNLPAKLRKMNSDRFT
# Sequence (P48544 whole entry): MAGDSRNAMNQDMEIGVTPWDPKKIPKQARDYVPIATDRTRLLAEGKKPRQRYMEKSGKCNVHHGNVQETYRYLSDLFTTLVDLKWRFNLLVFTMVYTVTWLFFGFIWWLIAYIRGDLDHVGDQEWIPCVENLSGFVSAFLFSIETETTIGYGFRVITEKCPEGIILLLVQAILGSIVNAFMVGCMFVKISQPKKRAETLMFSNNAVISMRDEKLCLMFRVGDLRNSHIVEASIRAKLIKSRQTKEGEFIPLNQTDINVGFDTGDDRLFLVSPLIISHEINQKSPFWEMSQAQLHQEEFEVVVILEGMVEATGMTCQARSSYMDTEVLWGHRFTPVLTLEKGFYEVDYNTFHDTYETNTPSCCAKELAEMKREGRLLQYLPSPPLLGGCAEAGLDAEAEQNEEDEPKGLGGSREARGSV
# assay_protocol: Atomic Absorption Screening (AAS) Rb efflux assay of hKir3.1/Kir3.4 block, carbachol/high K+ stimulated, 10-pt or 7-pt CR
# Type: cell-based
# details: 10-pt CR (0.003 to 67 μmol/L), AAS Rb efflux, CHO-K1 cells expressing hKir3.1/Kir3.4; mean of >4 replicates; read-out: IKACh IC50 10-pt CR, AAS
measured_attribute: pIC50
Give only the number. pIC50 is defined as minus log10 of concentration in molar units.

Would you please look over these solved cases?
- molecule: "CCN(C(=O)c1ccc(F)c(C)c1)[C@H](CN1CCCC1)C(C)C [Example 15.2]"
  measured: 4.74
- molecule: "CCCC[C@@H](CN1CC(O)C1)N(C)C(=O)c1cc(F)ccc1F [Example 33.9]"
  measured: 5.37
- molecule: "CN(C(=O)c1cccc(Cl)c1F)[C@@H](CN1CC(O)C1)C1CCC1 [Example 35.11]"
  measured: 5.32

stdin: What value of pIC50 on human cardiac ion channel proteins hKir3.1/Kir3.4 (Homo sapiens, UniProt P48544+P48549) does CN(C(=O)c1ccc(F)c(Cl)c1)[C@H](CN1CC(O)C1)C1CC1 [Example 7.3] have?
stdout: 5.72

stdin: // fetch human cardiac ion channel proteins hKir3.1/Kir3.4 (Homo sapiens, UniProt P48544+P48549) pIC50 for Cc1cc(C(=O)N(C)[C@H](CN2CC(O)(C3CC3)C2)C2CC2)ccc1F [Example 9.1]
stdout: 5.59
